System: RXF 393 renal
Experiment: NCI-60 one-dose screen, 48 h
Conditions: 10 µM unless noted
Compounds without any hit were thinned out: in the full panel of roughly 83,000, 20% have a hit. The source made the active and inactive calls. How the source made its calls: active means growth percent below 10; inactive means the rest.
Output constraint: value belongs to 1 (yes) for active, 0 (no) for inactive

Sample answers from the record:
molecule=O=C(Nc1ccc(Cl)cc1)Nc1nc2ccc(OC(F)(F)F)cc2o1 group_label="0 (no)"
molecule=Nc1nc(Nc2ccccc2SSc2ccccc2Nc2nc(N)nc(-c3cccc(Cl)c3)n2)nc(-c2cccc(Cl)c2)n1 group_label="0 (no)"
molecule=COc1ccc(CCN2C(=O)CCC3=C2CCCC3=O)cc1OC group_label="0 (no)"
molecule=COc1ccccc1NC(=O)c1sc2nc3c(cc2c1N)C(=O)CCC3 group_label="0 (no)"
molecule="COc1ccc(C2=NN(C(N)=S)C(c3ccc4c(c3)OCO4)C2)cc1 (centres undefined)" group_label="0 (no)"
molecule="O=c1ccn(C2CC=C(CO)O2)c(=O)[nH]1 (centres undefined)" group_label="1 (yes)"

Kindly provide the recorded test outcome for the following molecule: CN1CCN(CCCCCN=c2cc3c(=O)n(CCCCCN4CCN(C)CC4)c(=O)c4c(NCCCCCN5CCN(C)CC5)cc5c(O)n(CCCCCN6CCN(C)CC6)c(=O)c2c5c4-3)CC1
0 (no)

Kindly provide the recorded test outcome for the following molecule: COc1cc(Cl)cc(-c2nn(-c3cccc(NC(=O)c4cc(C(F)(F)F)cc(C(F)(F)F)c4)c3)cc2-c2ccncc2)c1
0 (no)

Kindly provide the recorded test outcome for the following molecule: COc1cc(NC(C)CCCN)c2nc(C)ccc2c1Oc1ccc(F)cc1 (centres undefined)
0 (no)

###

Would you kindly list growth for each of these molecules?
System: MCF7 breast
Experiment: NCI-60 one-dose screen, 48 h (100 = growth as untreated, 0 = no growth, -100 = all killed)
Conditions: 10 µM unless noted
About 83,000 compounds went through this panel and 20% of them were active in at least one assay; those are over-represented in the sample as a whole.
Numbers only, in %.

Known results for molecules:
molecule=N=C1c2nc3n(c2C(=O)c2nc4n(c21)CCCCC4)CCCCC3 measurement=94.5
molecule="CC1Cc2ccccc2N1C(=O)c1ccc(C(=O)c2ccccc2)cc1 (stereo unspecified)" measurement=103

For every item in the list below, what is its measured growth?
1. COc1ccc(/C=C/C(=O)c2cccc(NS(C)(=O)=O)c2)cc1
2. COc1ccc(CNC(=O)c2c(C)n([O-])c3ccccc3[n+]2=O)cc1

50.4
91

For every item in the list below, what is its measured growth?
1. O=C1Nc2ccc(Cl)cc2[C@@](C#CC2CC2)(C(F)(F)F)O1
2. Nc1ccccc1-c1ccn[nH]1

1: 105; 2: 100

###

Tested on: HT29 colon
Experiment: NCI-60 one-dose screen, 48 h (100 = growth as untreated, 0 = no growth, -100 = all killed)
Settings: 10 µM unless noted
Compounds without any hit were thinned out: in the full panel of roughly 83,000, 20% have a hit. Activity calls are given as the source filed them. How the source made its calls: active means growth percent below 10; inactive means the rest.
Observed Property: growth

Known results for compounds:
structure=CCCc1n(Cc2ccc3ccccc3c2)cc[n+]1Cc1ccc2ccccc2c1 observed_property=growth measurement="-22.5% (active)"
structure=O=C(/C=C/c1c(-c2ccccc2)[nH]c2ccccc12)S(=O)(=O)c1ccccc1 observed_property=growth measurement="34% (inactive)"
structure=CCCCN=C(N)c1ccc(OCCSCCOc2ccc(C(N)=NCCCC)cc2)cc1 observed_property=growth measurement="44% (inactive)"
structure=Cc1ccc(N/N=C(/C(=O)c2ccc(Cl)cc2)c2nc(C)cc(=O)[nH]2)cc1 observed_property=growth measurement="111% (inactive)"
structure=O=C(COc1cccc(/C=C2\Oc3ccc4ccccc4c3C2=O)c1)c1ccc(Cl)cc1 observed_property=growth measurement="103% (inactive)"
structure=CC(=O)O[C@H]1CC[C@@]2(C)C(=CC[C@@H]3[C@@H]2CC[C@]2(C)C(c4cccnc4)=CC[C@@H]32)C1 observed_property=growth measurement="22.1% (inactive)"

# context switch: different compound, same growth
Please fill in: growth reported for C[C@@H]1[C@H]2[C@H](C=C3[C@@H]4CC[C@H]5Cc6nc7c(nc6C[C@]5(C)[C@H]4C[C@@H](O)[C@@]32C)C[C@@H]2CC[C@H]3C4=C[C@@H]5O[C@@]6(CC[C@](C)(CO)O6)[C@@H](C)[C@@]5(O)[C@@]4(C)[C@H](O)C[C@@H]3[C@@]2(C)C7)O[C@]12CCC(C)(C)O2 = -14.6% (active)

###

Tested on: PC-3 prostate
Assay: NCI-60 one-dose screen, 48 h
Settings: 10 µM unless noted
This is part of a sample that, as a whole, favours compounds with a hit. Of some 83,000 tested, about 20% had one in any assay. The source made the active and inactive calls. The calls were made as follows: active = growth percent below 10; inactive = the rest.
Output constraint: value belongs to active, inactive

Kindly provide the recorded test outcome for the following compound: O=C1/C(=C/c2ccccc2Cl)CCc2ccccc21
inactive

Kindly provide the recorded test outcome for the following compound: Cn1c(=O)c2[nH]c(=S)n(Cc3ccccc3)c2n(C)c1=O
inactive

Kindly provide the recorded test outcome for the following compound: CC(=O)[C@H]1CC[C@H]2[C@@H]3C[C@H](C)C4=CC(=O)CC[C@]4(C)[C@H]3C(=O)C[C@]12C
inactive

Kindly provide the recorded test outcome for the following compound: CC(=O)Nc1c(Cl)cc2c(c1Cl)Cc1ccccc1-2
inactive

Kindly provide the recorded test outcome for the following compound: COc1cccc(CCN2C(=O)CCC3=C2CCC3=O)c1
inactive

###

Test system: SW-620 colon
Experiment: NCI-60 one-dose screen, 48 h
Details: 10 µM unless noted
About 83,000 compounds went through this panel and 20% of them were active in at least one assay; those are over-represented in the sample as a whole. Activity calls are given as the source filed them. How the source made its calls: active means growth percent below 10; inactive means the rest.
Output constraint: value belongs to active, inactive

Sample answers from the record:
molecule=O=C(O)CNC(=O)C1(N2C(=O)c3ccccc3C2=O)CCCC1 group_label=inactive
molecule=CCCCCCCCCCN1CCC(N2CCCCC2)CC1 group_label=active
molecule=CC(=O)Nc1c(Cl)cc2c(c1Cl)Cc1cc([N+](=O)[O-])ccc1-2 group_label=inactive

For the next question, use this molecule.
Kindly provide the recorded test outcome for the following molecule: c1ccc(N2c3nc4ccccc4cc3Sc3cc4ccccc4nc32)nc1
inactive

###

System: EKVX NSCLC
Test: NCI-60 one-dose screen, 48 h (100 = growth as untreated, 0 = no growth, -100 = all killed)
Settings: 10 µM unless noted
About 83,000 compounds went through this panel and 20% of them were active in at least one assay; those are over-represented in the sample as a whole.
Please mark true (1) if the recorded growth is equal to or greater than 70%, and false (0) if it falls below.

Decide: is the reported value of growth for Cc1cc(C)c(C(=O)c2cccs2)c(C)c1 equal to or greater than 70%?
true (1)

Decide: is the reported value of growth for CC(=O)N1N=C(c2ccc(Nc3ccnc4cc(Cl)ccc34)cc2)CC1c1ccc(Cl)cc1 (centres undefined) equal to or greater than 70%?
false (0)

Decide: is the reported value of growth for COc1ccc2nc(N/N=C(\C)c3ccccn3)cc(C)c2c1 equal to or greater than 70%?
false (0)

Decide: is the reported value of growth for N#CC(C#N)C(C#N)C#N equal to or greater than 70%?
true (1)

Decide: is the reported value of growth for CCOC(=O)c1cnc2c(C)cc(C)cc2c1NCCCN(C)C equal to or greater than 70%?
false (0)

Decide: is the reported value of growth for CC(=O)N1N=C(c2ccc(Nc3nc(NCCO)nc(NCCO)n3)cc2)CC1c1ccc(Cl)cc1 (centres undefined) equal to or greater than 70%?
true (1)

Decide: is the reported value of growth for CS(=O)(=O)N1CCN(Cc2cc3nc(-c4cccc5[nH]ncc45)nc(N4CCOCC4)c3s2)CC1 (tested in a mixture with another compound) equal to or greater than 70%?
false (0)

Decide: is the reported value of growth for C=C(CN1CCc2c([nH]c3ccccc23)C1)c1ccc(C(=O)Nc2ccon2)cc1 equal to or greater than 70%?
true (1)

Decide: is the reported value of growth for COc1ccc2nc(-c3ccc(Cl)cc3)cc(-c3nnc(SCC(=O)Nc4ccc(C(C)=O)cc4)n3-c3ccccc3)c2c1 equal to or greater than 70%?
true (1)

Decide: is the reported value of growth for Nc1nc(Nc2ccccc2SSc2ccccc2Nc2nc(N)nc(-c3cccc(Cl)c3)n2)nc(-c2cccc(Cl)c2)n1 equal to or greater than 70%?
true (1)

###

Tested on: 786-0 renal
Experiment: NCI-60 one-dose screen, 48 h
Conditions: 10 µM unless noted
The panel holds about 83,000 compounds, 20% with a hit somewhere; the sample as a whole holds those more often. Calls of active or inactive are those of the source. Rule for the calls: active = growth percent below 10; inactive = the rest.
Output constraint: value belongs to active, inactive

Sample answers from the record:
compound=O=Nc1c2cccnc2n2nnc3ccc(Cl)cc3c12 group_label=inactive
compound=N#Cc1ccccc1C#Cc1ccccc1C#Cc1ccc(OCCCCCCOc2ccc(C#Cc3ccccc3C#Cc3ccccc3C#N)cc2)cc1 group_label=inactive
compound=CC(=O)Nc1c(Cl)cc2c(c1Cl)Cc1cc([N+](=O)[O-])ccc1-2 group_label=inactive
compound=COc1cc(/C=N/OC(=O)Nc2ccccc2)cc(OC)c1OC group_label=inactive
compound=COc1cc(/C=C/C(=O)CC(=O)/C=C/c2ccc(OC(=O)CCNC34CC5CC(CC(C5)C3)C4)c(OC)c2)ccc1OC(=O)CCNC12CC3CC(CC(C3)C1)C2 group_label=inactive

Kindly provide the recorded test outcome for the following compound: Cc1ccc(-c2c3c(N)nc(-c4ccncc4)nc3nc3c2c(C)nn3-c2ccccc2)cc1
inactive

Kindly provide the recorded test outcome for the following compound: CC[N+](CCCCCCCCCC[N+](CC)(c1ccccn1)c1ccccn1)(c1ccccn1)c1ccccn1
inactive

Kindly provide the recorded test outcome for the following compound: COc1ccc(-c2cnc(SCC(=O)Nc3ccc(-c4nc5ccccc5s4)cc3)n2-c2ccc(OC)cc2)cc1
inactive

Kindly provide the recorded test outcome for the following compound: CC[n+]1c(/C=C/c2ccc(N3CCCC3)cc2)cccc1/C=C/c1ccc(N2CCCC2)cc1
active

Kindly provide the recorded test outcome for the following compound: Cc1[nH]cnc1/C=C1\SC(N2CCCCC2)=NC1=O
inactive

Data provenance: PubChem BioAssay (NCI)
